Hello, the source for this data is the supplement of paper PMC10307832, in case you need it.

- Test system: NCI-H1975
- test summary: relative viability (nuclei count vs DMSO), 5 days (fraction); higher = more cells survive
- stated conditions: first compound 0.003162 µM
measurement kind: relative viability
When you answer, write just the number.

Which relative viability is reported with NCI-H1975 for this entry: Cc1cn(-c2cc(NC(=O)c3ccc(C)c(Nc4nccc(-c5cccnc5)n4)c3)cc(C(F)(F)F)c2)cn1 [Nilotinib] + CC1(C)CCC(c2ccc(Cl)cc2)=C(CN2CCN(c3ccc(C(=O)NS(=O)(=O)c4ccc(N[C@H](CCN5CCOCC5)CSc5ccccc5)c(S(=O)(=O)C(F)(F)F)c4)cc3)CC2)C1 [Navitoclax] (partner 0.5 µM) ?
1.22

Which relative viability is reported with NCI-H1975 for this entry: Cc1cn(-c2cc(NC(=O)c3ccc(C)c(Nc4nccc(-c5cccnc5)n4)c3)cc(C(F)(F)F)c2)cn1 [Nilotinib] + Nc1ncn([C@H]2C[C@H](O)[C@@H](CO)O2)c(=O)n1 [Decitabine] (partner 2 µM) ?
0.393

Which relative viability is reported with NCI-H1975 for this entry: Cc1cn(-c2cc(NC(=O)c3ccc(C)c(Nc4nccc(-c5cccnc5)n4)c3)cc(C(F)(F)F)c2)cn1 [Nilotinib] + Nc1nc2[nH]cc(CCc3ccc(C(=O)N[C@@H](CCC(=O)O)C(=O)O)cc3)c2c(=O)[nH]1 [Pemetrexed] (partner 0.2 µM) ?
0.298

Which relative viability is reported with NCI-H1975 for this entry: Cc1cn(-c2cc(NC(=O)c3ccc(C)c(Nc4nccc(-c5cccnc5)n4)c3)cc(C(F)(F)F)c2)cn1 [Nilotinib] + COc1cccc2cc(-c3nc([C@H]4CC[C@H](C(=O)O)CC4)n4ncnc(N)c34)[nH]c12 [OSI-027] (partner 0.5 µM) ?
0.53
